assayed-target: Adenosine receptor A3 (Homo sapiens)
assay: Inhibition of [3H]PSB11 binding to human recombinant adenosine A3 receptor in CHO cells at >=10 uM
Assay type: cell-based
measured-quantity: inhibition (%)

> print(dat)
                            chemical.smiles  measured.quantity  value.reported
1  CCCCNS(=O)(=O)c1ccc(-c2nc3c(=O)n(C)c(=O)n(C)c3[nH]2)cc1         inhibition              43
2  Cn1c(=O)c2nc(-c3ccc(S(=O)(=O)NCCO)cc3)[nH]c2n(C)c1=O         inhibition              49
3  CCCn1c(=O)[nH]c2[nH]c(-c3ccc(S(=O)(=O)NCCO)cc3)nc2c1=O         inhibition              36
4  CCCn1c(=O)[nH]c2[nH]c(-c3ccc(S(=O)(=O)NCCc4ccccc4)cc3)nc2c1=O         inhibition              37

###

Ki reference
assayed-target: Adenosine receptor A3 (Homo sapiens, UniProt P0DMS8)
Sequence (P0DMS8 whole entry): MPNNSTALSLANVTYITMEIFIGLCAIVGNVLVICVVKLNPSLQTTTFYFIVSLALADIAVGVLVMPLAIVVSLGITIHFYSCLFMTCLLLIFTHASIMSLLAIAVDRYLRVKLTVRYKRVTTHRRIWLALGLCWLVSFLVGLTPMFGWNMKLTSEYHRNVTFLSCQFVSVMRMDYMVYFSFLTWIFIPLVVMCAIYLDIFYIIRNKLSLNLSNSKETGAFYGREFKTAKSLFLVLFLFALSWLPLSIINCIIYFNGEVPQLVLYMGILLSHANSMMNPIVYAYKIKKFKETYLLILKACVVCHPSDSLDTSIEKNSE
assay: Displacement of [3H]PSB11 from human recombinant adenosine A3 receptor expressed in CHO cells
Format: cell-based

Worked cases, Ki given:
> print(dat)
                            chemical.smiles                            assayed.target  value.reported
1  CCCn1c(=O)[nH]c2[nH]c(-c3ccc(S(=O)(=O)NCc4ccccc4)cc3)nc2c1=O  Adenosine receptor A3 (Homo sapiens, UniProt P0DMS8)          ≥ 1 µM
2  CCCn1c(=O)[nH]c2nc(-c3ccc(S(=O)(=O)NCC(=O)O)cc3)[nH]c2c1=O  Adenosine receptor A3 (Homo sapiens, UniProt P0DMS8)         > 10 µM
3  CC(C)NS(=O)(=O)c1ccc(-c2nc3c([nH]2)c(=O)n(C)c(=O)n3C)cc1  Adenosine receptor A3 (Homo sapiens, UniProt P0DMS8)         > 10 µM

# evaluate next
Find the recorded Ki belonging to "Cn1c(=O)c2[nH]c(-c3ccc(S(=O)(=O)NCCO)cc3)nc2n(C)c1=O" and report it.
≥ 10 µM

###

assayed-target: Adenosine receptor A2b (Homo sapiens, UniProt P29275)
Sequence (P29275 whole entry): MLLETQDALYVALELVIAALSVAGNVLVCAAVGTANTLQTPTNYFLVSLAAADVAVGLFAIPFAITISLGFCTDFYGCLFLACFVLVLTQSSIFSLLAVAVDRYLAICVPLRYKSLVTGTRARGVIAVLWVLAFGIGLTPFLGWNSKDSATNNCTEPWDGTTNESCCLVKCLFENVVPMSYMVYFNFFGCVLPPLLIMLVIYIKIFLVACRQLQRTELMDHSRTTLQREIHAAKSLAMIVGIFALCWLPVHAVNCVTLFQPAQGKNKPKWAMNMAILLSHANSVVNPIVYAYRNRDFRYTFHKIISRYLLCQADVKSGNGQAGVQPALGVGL
assay: Displacement of [3H]PSB298 from human recombinant adenosine A2B receptor expressed in CHO cells
pKi: −log10 of the molar value.
measured-quantity: pKi

> print(dat)
                            chemical.smiles                            assayed.target  measured.quantity  value.reported
1  CCCn1c(=O)[nH]c2[nH]c(-c3ccc(S(=O)(=O)NCCO)cc3)nc2c1=O  Adenosine receptor A2b (Homo sapiens, UniProt P29275)                pKi            7.57

A = CC(C)NS(=O)(=O)c1ccc(-c2nc3c([nH]2)c(=O)n(C)c(=O)n3C)cc1
B = CCCn1c(=O)[nH]c2[nH]c(-c3ccc(S(=O)(=O)Nc4ccccc4)cc3)nc2c1=O
C = Cn1c(=O)c2[nH]c(-c3ccc(S(=O)(=O)NCCc4ccccc4)cc3)nc2n(C)c1=O
D = CCCN(CCC)S(=O)(=O)c1ccc(-c2nc3[nH]c(=O)n(CCC)c(=O)c3[nH]2)cc1
Rank by pKi (largest to smallest). Answer format: the labels, in the requested order.
C, B, D, A
(C: 8.35, B: 7.50, D: 7.27, A: 6.99)
